- SYSTEM_UNDER_TEST: T1, human GIP receptor (human, UniProt P48546 22-466)
- T1 sequence (looked up): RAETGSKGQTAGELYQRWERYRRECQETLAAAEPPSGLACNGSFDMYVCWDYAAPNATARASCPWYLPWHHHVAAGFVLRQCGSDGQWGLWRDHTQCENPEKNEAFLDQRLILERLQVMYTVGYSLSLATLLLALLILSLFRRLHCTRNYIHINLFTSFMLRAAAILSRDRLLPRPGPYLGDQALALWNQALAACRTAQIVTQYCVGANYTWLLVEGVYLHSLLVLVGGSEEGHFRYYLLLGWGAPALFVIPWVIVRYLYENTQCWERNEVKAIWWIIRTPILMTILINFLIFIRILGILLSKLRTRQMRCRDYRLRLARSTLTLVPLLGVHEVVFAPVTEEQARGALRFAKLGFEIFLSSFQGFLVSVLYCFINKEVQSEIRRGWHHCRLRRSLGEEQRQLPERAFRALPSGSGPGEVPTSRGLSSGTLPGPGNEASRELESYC
- PROTOCOL_NOTES: cell-based or functional assay
Bridge positions count the residues as written; N and C are the ends. Square brackets hold non-standard residues; d marks the D form. Ends that are not written are not given here. * marks the point of attachment. Acetyl(2-(4-imidazolyl)) = O=C(Cc1c[nH]cn1)*; Aib = CC(C)(N)C(=O)O
Mark class 1 for In vitro activity (%) compared with native peptide, vs GIP under 2%, class 0 if at or over.

Given the entry H[Aib]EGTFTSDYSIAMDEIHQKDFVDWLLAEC (bridge 16-20) [triple agonist of SEQ ID NO: 54] , would its reported In vitro activity (%) compared with native peptide, vs GIP be below 2%?
class 1

Is the reported In vitro activity (%) compared with native peptide, vs GIP for {Acetyl(2-(4-imidazolyl))}-[Aib]QGTFTSDYSKYLDEKRQKEFVQWLLNTKC (bridge 15-19; numbers in words are those of the source; also: ring between positions 16 and 20, type not given here) [triple agonist of SEQ ID NO: 88] strictly below 2%?
class 1

Is 2% strictly greater than the binder's reported In vitro activity (%) compared with native peptide, vs GIP? binder: [Acetyl(2-(4-imidazolyl))]GQGTFTSDLSIQYEEEAQQDFVEWLKDTGPSSGAPPPSHG (not fully specified) [triple agonist of SEQ ID NO: 20]
class 1

Please state whether In vitro activity (%) compared with native peptide, vs GIP is below 2% for H[Aib]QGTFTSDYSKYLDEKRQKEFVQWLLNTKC (bridge 16-20) [triple agonist of SEQ ID NO: 58]
class 1

Dear reviewer, please state whether Y[Aib]QGTFTSDYSKALDEKAAKEFVNWLLDHHPSSGQPPPSC (bridge 16-20) [triple agonist of SEQ ID NO: 98] has In vitro activity (%) compared with native peptide, vs GIP strictly beneath 2%.
class 0

Given the entry HGQGTFTSDCSKYMDGQAAQDFVAWLLAGGPSSGAPPPS [triple agonist of SEQ ID NO: 45] , would its reported In vitro activity (%) compared with native peptide, vs GIP be below 2%?
class 1

hey, is In vitro activity (%) compared with native peptide, vs GIP for Y[Aib]QGTFTSDYSKALDEKAAKDFVNWLLDHHPSSGQPPPSC (bridge 16-20) [triple agonist of SEQ ID NO: 99] lower than 2% or not?
class 0

Regarding H[Aib]QGTFTSDYSKYLDECRQKEFVQWLLNGGPSSGAPPPSG (bridge 16-20) [triple agonist of SEQ ID NO: 37] , kindly confirm whether its In vitro activity (%) compared with native peptide, vs GIP is beneath 2%.
class 0

Identify whether the binder [Acetyl(2-(4-imidazolyl))][Aib]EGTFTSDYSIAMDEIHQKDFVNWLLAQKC (bridge 16-20; not fully specified) [triple agonist of SEQ ID NO: 90] records In vitro activity (%) compared with native peptide, vs GIP below 2%.
class 1

is_below(In vitro activity (%) compared with native peptide, vs GIP, 2%) for Y[Aib]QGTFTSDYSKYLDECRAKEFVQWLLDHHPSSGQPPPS (bridge 16-20) [triple agonist of SEQ ID NO: 21] ?
class 0
